tested on: Streptococcus agalactiae; assay: In Vitro Anti Bacterial Activity (MIC90) against 90% of tested clinical Isolates of Streptococcus agalactiaeB(21); format: functional
Readings of MIC90 for the listed molecules
Give a bare numeral; the unit µg/mL is implied.

molSmiles	MIC90 (µg/mL)
C[C@@H](O)[C@H]1C(=O)N2C(C(=O)O)=C(CN3C[C@H](O)C[C@H]3C(N)=O)S[C@H]12	0.06
C[C@@H](O)[C@H]1C(=O)N2C(C(=O)O)=C(CN(C)CC(N)=O)S[C@H]12	0.06
C[C@@H](O)[C@H]1C(=O)N2C(C(=O)O)=C(CN3CCC[C@H]3C(N)=O)S[C@H]12	0.03
C[C@@H](O)[C@H]1C(=O)N2C(C(=O)O)=C(CN3CCC[C@@H]3C(N)=O)S[C@H]12	0.12

INPUT: Find the recorded MIC90 belonging to `C[C@@H](O)[C@H]1C(=O)N2C(C(=O)O)=C(CN(C)[C@@H](C)C(N)=O)S[C@H]12` and report it.
OUTPUT: 0.06

---

tested on: Acinetobacter calcoaceticus subsp. anitratus; test: In Vitro Anti Bacterial Activity (MIC90) against 90% of tested clinical Isolates of Acinetobacter anitratus(20); type: functional
parameterMeasured: MIC90 (µg/mL)
Give a bare numeral; the unit µg/mL is implied.

molSmiles	target	unitAbbreviation	MIC90
C[C@@H](O)[C@H]1C(=O)N2C(C(=O)O)=C(CN(C)[C@@H](C)C(N)=O)S[C@H]12	Acinetobacter calcoaceticus subsp. anitratus	µg/mL	32
C[C@@H](O)[C@H]1C(=O)N2C(C(=O)O)=C(CN3CCC[C@@H]3C(N)=O)S[C@H]12	Acinetobacter calcoaceticus subsp. anitratus	µg/mL	32
C[C@@H](O)[C@H]1C(=O)N2C(C(=O)O)=C(CN3C[C@H](O)C[C@H]3C(N)=O)S[C@H]12	Acinetobacter calcoaceticus subsp. anitratus	µg/mL	16
C[C@@H](O)[C@H]1C(=O)N2C(C(=O)O)=C(CN3CCC[C@H]3C(N)=O)S[C@H]12	Acinetobacter calcoaceticus subsp. anitratus	µg/mL	16

INPUT: Find the recorded MIC90 belonging to `C[C@@H](O)[C@H]1C(=O)N2C(C(=O)O)=C(CN(C)CC(N)=O)S[C@H]12` and report it.
OUTPUT: 16

---

test system: Pseudomonas aeruginosa; assay: In Vitro antibacterial activity against (Pa) hyperpermeable Pseudomonas aeruginosa […] strain; format: functional
parameterMeasured: MIC (µg/mL)
Give a bare numeral; the unit µg/mL is implied.

compound	recordedValue
C[C@@H](O)[C@H]1C(=O)N2C(C(=O)O)=C(CN3C[C@@H](O)C[C@H]3C(N)=O)S[C@H]12	0.5
C[C@@H](O)[C@H]1C(=O)N2C(C(=O)O)=C(COC(N)=O)S[C@H]12	0.5
C[C@@H](O)[C@H]1C(=O)N2C(C(=O)O)=C(CN(C)CC(=O)N(C)C)S[C@H]12	4

INPUT: Find the recorded MIC belonging to `C[C@@H](O)[C@H]1C(=O)N2C(C(=O)O)=C(CN3CCC[C@H]3C(=O)O)S[C@H]12` and report it.
OUTPUT: 32

INPUT: Next record, please: `C[C@@H](O)[C@H]1C(=O)N2C(C(=O)O)=C(CN(CC(N)=O)CC(N)=O)S[C@H]12`
OUTPUT: 0.5

INPUT: Next record, please: C[C@@H](O)[C@H]1C(=O)N2C(C(=O)O)=C(SCCNC=N)C[C@H]12 [IMIPENEM ANHYDROUS]
OUTPUT: 0.25

---

test system: Staphylococcus aureus; experiment: In Vitro Anti Bacterial Activity (MIC90) against 90% of tested clinical Isolates of Staphylococcus aureus MV (20); type: functional
parameterMeasured: MIC90

As a guide, the following entries are already answered.
molSmiles	target	parameterMeasured	recordedValue
C[C@@H](O)[C@H]1C(=O)N2C(C(=O)O)=C(CN(C)CC(N)=O)S[C@H]12	Staphylococcus aureus	MIC90	4 µg/mL
C[C@@H](O)[C@H]1C(=O)N2C(C(=O)O)=C(CN3CCC[C@@H]3C(N)=O)S[C@H]12	Staphylococcus aureus	MIC90	8 µg/mL
C[C@@H](O)[C@H]1C(=O)N2C(C(=O)O)=C(CN3CCC[C@H]3C(N)=O)S[C@H]12	Staphylococcus aureus	MIC90	8 µg/mL
C[C@@H](O)[C@H]1C(=O)N2C(C(=O)O)=C(CN(C)[C@@H](C)C(N)=O)S[C@H]12	Staphylococcus aureus	MIC90	8 µg/mL

Now look at this entry.
INPUT: Find the recorded MIC90 belonging to `C[C@@H](O)[C@H]1C(=O)N2C(C(=O)O)=C(CN3C[C@H](O)C[C@H]3C(N)=O)S[C@H]12` and report it.
OUTPUT: > 32 µg/mL

---

tested on: Escherichia coli; test: In Vitro antibacterial activity against (Ec TEM2) Escherichia coli […] strain; format: functional
parameterMeasured: MIC (µg/mL)
Give a bare numeral; the unit µg/mL is implied.

compound	parameterMeasured	unitAbbreviation	recordedValue
C[C@@H](O)[C@H]1C(=O)N2C(C(=O)O)=C(CN(C)CCC(N)=O)S[C@H]12	MIC	µg/mL	1
C[C@@H](O)[C@H]1C(=O)N2C(C(=O)O)=C(CN3C[C@H](O)C[C@@H]3C(N)=O)S[C@H]12	MIC	µg/mL	2
C[C@@H](O)[C@H]1C(=O)N2C(C(=O)O)=C(CN3C[C@@H](O)C[C@H]3C(N)=O)S[C@H]12	MIC	µg/mL	2
C[C@@H](O)[C@H]1C(=O)N2C(C(=O)O)=C(CN3CCCC(C(N)=O)C3)S[C@H]12 (stereo partly drawn)	MIC	µg/mL	4
C[C@@H](O)[C@H]1C(=O)N2C(C(=O)O)=C(CN(C)CC(=O)N(C)C)S[C@H]12	MIC	µg/mL	1
C[C@@H](O)[C@H]1C(=O)N2C(C(=O)O)=C(CN3CCC[C@H]3C(=O)O)S[C@H]12	MIC	µg/mL	32
C[C@@H](O)[C@H]1C(=O)N2C(C(=O)O)=C(CN(CC(N)=O)CC(N)=O)S[C@H]12	MIC	µg/mL	0.25
C[C@@H](O)[C@H]1C(=O)N2C(C(=O)O)=C(CN(C)C(CO)C(N)=O)S[C@H]12 (stereo partly drawn)	MIC	µg/mL	1

INPUT: Find the recorded MIC belonging to `COC(=O)[C@@H]1CCCN1CC1=C(C(=O)O)N2C(=O)[C@H]([C@@H](C)O)[C@H]2S1` and report it.
OUTPUT: 8

INPUT: Next record, please: `C[C@@H](O)[C@H]1C(=O)N2C(C(=O)O)=C(CSC(=S)N(C)CC(N)=O)S[C@H]12`
OUTPUT: 8

INPUT: Next record, please: `C[C@@H](O)[C@H]1C(=O)N2C(C(=O)O)=C(CN(C)CC(=O)N3CCN(C)CC3)S[C@H]12`
OUTPUT: 1

INPUT: Next record, please: `C[C@@H](O)[C@H]1C(=O)N2C(C(=O)O)=C(COC(N)=O)S[C@H]12`
OUTPUT: 1

INPUT: Next record, please: `C[C@@H](O)[C@H]1C(=O)N2C(C(=O)O)=C(CN3CCC[C@@H]3C(N)=O)S[C@H]12`
OUTPUT: 1

INPUT: Next record, please: C[C@@H](O)[C@H]1C(=O)N2C(C(=O)O)=C(CN3CCCCC3C(N)=O)S[C@H]12 (stereo partly drawn)
OUTPUT: 2

INPUT: Next record, please: C[C@@H](O)[C@H]1C(=O)N2C(C(=O)O)=C(CN3CC3C(N)=O)S[C@H]12 (stereo partly drawn)
OUTPUT: 2

INPUT: Next record, please: `C[C@@H](O)[C@H]1C(=O)N2C(C(=O)O)=C(CN(C)[C@@H](C)C(N)=O)S[C@H]12`
OUTPUT: 1

INPUT: Next record, please: `C[C@@H](O)[C@H]1C(=O)N2C(C(=O)O)=C(CN3C[C@@H](O)C[C@@H]3C(N)=O)S[C@H]12`
OUTPUT: 1

INPUT: Next record, please: `C[C@@H](O)[C@H]1C(=O)N2C(C(=O)O)=C(CN3CCC[C@H]3C(N)=O)S[C@H]12`
OUTPUT: 2

INPUT: Next record, please: `CCN(CC(N)=O)CC1=C(C(=O)O)N2C(=O)[C@H]([C@@H](C)O)[C@H]2S1`
OUTPUT: 1

INPUT: Next record, please: C[C@@H](O)[C@H]1C(=O)N2C(C(=O)O)=C(SCCNC=N)C[C@H]12 [IMIPENEM ANHYDROUS]
OUTPUT: 0.25

INPUT: Next record, please: `C[C@@H](O)[C@H]1C(=O)N2C(C(=O)O)=C(CN3C[C@H](O)C[C@H]3C(N)=O)S[C@H]12`
OUTPUT: 0.25

INPUT: Next record, please: `C[C@@H](O)[C@H]1C(=O)N2C(C(=O)O)=C(CN3CCC(C(N)=O)CC3)S[C@H]12`
OUTPUT: 2

The reported numbers originate from ChEMBL document CHEMBL1128718.
